# System: SK-OV-3 ovarian
# Procedure text: NCI tumour cell line growth inhibition, 48 h
Readout name: TGI

Example entries begin here.
INSERT INTO assay_data (molecule, experimental_system, reading) VALUES
  ('CN(C)C(=S)/N=c1\ss/c(=N\C(=S)N(C)C)n1Cc1ccco1', 'SK-OV-3 ovarian', '> 100 µM'),
  ('CCOC(=O)c1ccccc1SC(C[N+](=O)[O-])c1ccccc1 (stereo unspecified)', 'SK-OV-3 ovarian', '26.5 µM'),
  ('C[C@]12CC[C@H](O)CC1=CC[C@@H]1[C@@H]2CC[C@]2(C)C(=O)/C(=C/c3ccc([N+](=O)[O-])cc3)C[C@@H]12', 'SK-OV-3 ovarian', '22.6 µM'),
  ('C[N+](C)(C)CC(=O)N/N=C(/Cc1nc2ccc([N+](=O)[O-])cc2[nH]c1=O)C(=O)Nc1cc(C(F)(F)F)ccc1Cl', 'SK-OV-3 ovarian', '> 100 µM'),
  ('CC1CCOc2ccc(cc2)C=Nc2ccc(cc2)-c2ccc(cc2)N=Cc2ccc(cc2)OCC1 (stereo unspecified)', 'SK-OV-3 ovarian', '> 100 µM');

API: the following record is the query input.
## Task Return reported TGI; argument: COc1ccc2c(c1)[nH]c(=O)c1c3cc(OC)c(OC)cc3cn21
## Result 17.5 µM

* * *

Kindly state TGI for each of the entries shown.
# Test system: HCC-2998 colon
# Procedure text: NCI tumour cell line growth inhibition, 48 h

Example entries begin here.
INSERT INTO results (compound, reading) VALUES
  ('CC1CCOc2ccc(cc2)C=Nc2ccc(cc2)-c2ccc(cc2)N=Cc2ccc(cc2)OCC1 (stereo unspecified)', '> 100 µM'),
  ('CCCCCCCCCCCCCCCC(=O)OCC1OC(OC)C(NC(=O)N(CCCl)N=O)C(O)C1O (stereo unspecified)', '48.2 µM'),
  ('CN(C)c1ccc2cc3ccc(N(C)C)cc3nc2c1', '2.64 µM'),
  ('O=C1CCC2(c3ccc(Cl)cc3)Nc3ncncc3N12 (stereo unspecified)', '> 10 µM'),
  ('O=C(Oc1ccccc1Cl)c1ccccc1Nc1cccc(C(F)(F)F)c1', '26.7 µM'),
  ('O=C1CC(c2ccsc2)c2snc(-c3ccc(Cl)cc3)c2N1 (stereo unspecified)', '> 100 µM'),
  ('Cc1ccc(C#CS(=O)(=O)C(F)(F)F)cc1', '> 100 µM'),
  ('COc1ccc(-c2nc(-c3cnccn3)n(Cc3ccccc3)n2)cc1', '> 100 µM');

For every item in the list below, what is its measured TGI?
1. N#Cc1c(N2CCCC2)nsc1Nc1ccc(F)cc1
2. COc1ccc(N2C(=O)C3c4[nH]c5ccccc5c4C4c5ccccc5CC4C3C2=O)cc1 (stereo unspecified)
3. CCC(C)c1cccc(C)c1NC(=O)C(=O)Cc1nc2ccccc2s1 (stereo unspecified)

## Result
1. > 100 µM
2. > 100 µM
3. > 100 µM

* * *

# System: ACHN renal
# Procedure text: NCI tumour cell line growth inhibition, 48 h
Kindly state TGI for each of the entries shown.

Example entries begin here.
INSERT INTO assay_data (molecule, reading) VALUES
  ('O=C(Nc1ccc(Sc2ccc(N=Nc3c(O)c(S(=O)(=O)O)cc4cc(S(=O)(=O)O)ccc34)cc2)cc1)c1ccc(N=Nc2c(O)c(S(=O)(=O)O)cc3cc(S(=O)(=O)O)ccc23)cc1', '> 100 µM'),
  ('COc1cc(/C(=C2/O[C@@H]([C@H]3COC(C)(C)O3)[C@H]3OC(C)(C)O[C@@H]23)c2ccc3c(c2)OCO3)cc(OC)c1OC', '> 25 µM'),
  ('CCOC1NC(/N=C/c2ccc(OC)cc2)=C(C#N)C1C#N (stereo not given)', '> 100 µM');

For every item in the list below, what is its measured TGI?
1. O=C1c2cccnc2-c2nccc3c2c1nc1ccc(Br)cc13
2. COc1ccc(CCCN2c3ccccc3Sc3ccccc32)cc1

## Result
1: 0.0957 µM; 2: > 100 µM

* * *

# Tested on: SNB-19 CNS
# Procedure text: NCI tumour cell line growth inhibition, 48 h
Kindly state TGI for each of the entries shown.

Example entries begin here.
INSERT INTO results (record_smiles, reading) VALUES
  ('COc1ccc(-c2nnc(SCC(=O)Nc3ccc(C(=O)/C=C/c4cc(OC)c(OC)c(OC)c4)cc3)n2-c2ccccc2)cc1OC', '> 10 µM'),
  ('O=C(Oc1ccccc1Cl)c1ccccc1Nc1cccc(C(F)(F)F)c1', '> 100 µM'),
  ('O=S1(=O)OCCCOS(=O)(=O)C1(Br)Br', '> 100 µM'),
  ('OCCn1cc(-c2cnc3nnn(Cc4ccc5ncccc5c4)c3n2)cn1', '> 100 µM');

API: the following record is the query input.
## Task Return reported TGI; argument: Nc1ccccc1OCCCOc1ccccc1N
## Result > 100 µM

Source listed as PubChem BioAssay (NCI).
